// provenance: paper PMC9482650

For each of the binders below, state its pKd.
target: Inadl_6, Q8NI35; assay: holdup assay; parameters: key: below the threshold = too weak to quantify, mostly under pKd 3.1 to 4; conditions: plain residues with an end cap or a label only (N-terminal biotin on a linker: ahx)
Sequence (Q8NI35 1058-1167): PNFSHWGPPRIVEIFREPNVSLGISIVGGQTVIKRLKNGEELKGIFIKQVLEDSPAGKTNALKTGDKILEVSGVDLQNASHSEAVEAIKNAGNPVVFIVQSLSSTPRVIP
Give bare numbers.

BINDER: AKPQPVDSWV [ARVCF, O00192]
MEASURED_ENDPOINT: pKd
MEASURED: 4.33
//
BINDER: ADENEQVSAV [RAPGEF6, Q8TEU7]
MEASURED_ENDPOINT: pKd
MEASURED: 3.59
//
BINDER: VNENQKEYFF [CNTNAP4, Q9C0A0]
MEASURED_ENDPOINT: pKd
MEASURED: 3.86

// next entry
Q: Could you share which pKd value was measured for KEYDDELTFF [USH1C, Q9Y6N9] ?
A: 3.71
